Provide the recorded furin cleavage Z-score for the entries that follow.
target.of.assay: furin, P09958;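 also: purified furin at 1:10 enzyme:substrate in 50 mM HEPES pH 7.5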
Sequence (P09958 whole entry): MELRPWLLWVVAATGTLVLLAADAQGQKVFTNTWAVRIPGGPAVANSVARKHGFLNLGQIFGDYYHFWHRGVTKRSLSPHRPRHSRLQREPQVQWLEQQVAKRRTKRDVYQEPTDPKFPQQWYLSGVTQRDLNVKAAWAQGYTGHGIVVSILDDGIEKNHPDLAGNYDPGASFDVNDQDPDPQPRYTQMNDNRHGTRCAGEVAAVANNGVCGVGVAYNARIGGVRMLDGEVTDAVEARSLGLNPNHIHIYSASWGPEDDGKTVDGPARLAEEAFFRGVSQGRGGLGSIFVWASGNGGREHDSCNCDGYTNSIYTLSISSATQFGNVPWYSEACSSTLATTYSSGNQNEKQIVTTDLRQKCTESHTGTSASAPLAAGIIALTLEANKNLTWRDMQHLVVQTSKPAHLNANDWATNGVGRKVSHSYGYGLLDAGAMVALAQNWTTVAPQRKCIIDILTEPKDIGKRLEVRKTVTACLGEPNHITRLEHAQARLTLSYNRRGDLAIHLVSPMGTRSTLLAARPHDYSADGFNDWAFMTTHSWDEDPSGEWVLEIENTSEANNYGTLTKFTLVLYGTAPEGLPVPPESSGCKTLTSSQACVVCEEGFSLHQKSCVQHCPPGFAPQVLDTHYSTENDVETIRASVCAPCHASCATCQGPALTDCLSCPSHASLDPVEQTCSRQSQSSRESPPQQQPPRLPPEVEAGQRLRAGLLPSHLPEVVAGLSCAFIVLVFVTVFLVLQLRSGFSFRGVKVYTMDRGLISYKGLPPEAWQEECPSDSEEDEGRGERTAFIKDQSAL
assay.procedure: furin cleavage Z-score vs untreated control; higher = more cleavage, active = 3.5 or more, inactive = 1 or less, 8 variable residues between constant flanks
experimental.conditions: 7.5 min
The list shows a part of the results. How many sequences the whole screen found active is unknown.
Answer with the value's number alone.

Given the sequence CARVARTVDRAGNASASA [FS-2469] , what is its reported furin cleavage Z-score?
5.8

Given the sequence CAMESCSQHLAGNASASA [HC1717] , what is its reported furin cleavage Z-score?
0.437

Given the sequence CARHARFGKKAGNASASA [FS-2210] , what is its reported furin cleavage Z-score?
0.851

Given the sequence CATAQGMKRSAGNASASA [FS-725] , what is its reported furin cleavage Z-score?
1.25

Given the sequence CAVVYCSMSYAGNASASA [HC2029] , what is its reported furin cleavage Z-score?
-0.409

Given the sequence CAMKYEIASEAGNASASA [NG5] , what is its reported furin cleavage Z-score?
-0.26

Given the sequence CAVVCCSMWYAGNASASA [HC2068] , what is its reported furin cleavage Z-score?
1.14

Given the sequence CALLCPAGHAAGNASASA [HC745] , what is its reported furin cleavage Z-score?
0.399
